# target.or.test.system: human orexin-1 receptor (Homo sapiens (Human))
# Sequence (O43613 whole entry): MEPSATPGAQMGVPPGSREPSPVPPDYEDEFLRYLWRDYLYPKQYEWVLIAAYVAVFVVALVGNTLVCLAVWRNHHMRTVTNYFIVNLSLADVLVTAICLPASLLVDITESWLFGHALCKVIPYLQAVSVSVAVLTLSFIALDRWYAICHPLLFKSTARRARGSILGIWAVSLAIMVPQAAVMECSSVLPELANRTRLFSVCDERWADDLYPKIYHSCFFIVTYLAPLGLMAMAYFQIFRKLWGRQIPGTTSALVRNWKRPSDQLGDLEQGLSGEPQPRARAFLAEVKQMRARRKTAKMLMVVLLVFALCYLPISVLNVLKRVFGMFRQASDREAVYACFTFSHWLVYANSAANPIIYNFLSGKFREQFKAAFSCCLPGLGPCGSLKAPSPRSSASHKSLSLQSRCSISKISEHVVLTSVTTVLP
# procedure.details: In vitro assay: intracellular calcium measurements (FLIPR), antagonistic activity
# condition.parameters: CHO cells expressing human orexin-1 receptor, orexin-A agonist, geometric mean, read-out: IC50 Ox1
measured.attribute: log10 of IC50 (log10 of the value in nM)
A difference of one corresponds to tenfold IC50; all values are log10 with IC50 in nM.

1. Cc1nc(C(=O)N2CCC[C@@]2(C)c2nc3c(F)c(F)ccc3[nH]2)c(-c2ccccc2)s1 [Ex. 5.206]    1.28
2. COc1cc2nc([C@]3(C)CCCN3C(=O)c3cc(C)c(C)cc3-n3nccn3)[nH]c2cc1OC [Ex. 5.72]    1.28
3. Cc1nc(C(=O)N2CCC[C@H]2c2nc3cc(Cl)ccc3[nH]2)c(-c2cccc(Cl)c2)s1 [Ex. 1.10]    1.99

Take each entry in turn and give its log10 of IC50.
1. CO[C@H]1CN(C(=O)c2cc(OC(F)(F)F)ccc2-n2nccn2)C(C)(c2nc3c(C)c(Cl)ccc3[nH]2)C1 (stereo partly shown) [Ex. 3.51]
2. Cc1ccc(-c2ccc(F)cc2)c(C(=O)N2CCC[C@@]2(C)c2nc3cc(C)c(C)cc3[nH]2)c1 [Ex. 5.96]
3. CSc1cccc2nc([C@@H]3CCCN3C(=O)c3c(C)cccc3-n3nccn3)[nH]c12 [Ex. 1.170]
4. Cc1cc2[nH]c([C@@H]3[C@@H](C)CCN3C(=O)c3c(-n4nccn4)ccc(C)c3F)nc2cc1Cl [Ex. 4.75]

Ans:
1. 1.97
2. 1.11
3. 2.41
4. 0.90
